# TARGET ENTITY: STING (Canis lupus familiaris, UniProt A0A8I3MH52)
# Sequence (A0A8I3MH52 1-374): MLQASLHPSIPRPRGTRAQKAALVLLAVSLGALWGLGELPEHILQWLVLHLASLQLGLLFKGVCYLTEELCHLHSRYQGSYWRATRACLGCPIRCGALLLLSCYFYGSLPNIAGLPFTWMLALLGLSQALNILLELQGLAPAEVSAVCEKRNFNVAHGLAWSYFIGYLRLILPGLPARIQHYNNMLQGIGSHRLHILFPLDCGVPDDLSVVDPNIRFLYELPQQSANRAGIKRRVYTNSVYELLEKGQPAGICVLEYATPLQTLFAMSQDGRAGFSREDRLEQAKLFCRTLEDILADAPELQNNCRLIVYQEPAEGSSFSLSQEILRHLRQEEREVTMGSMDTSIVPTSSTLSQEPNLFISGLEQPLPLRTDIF
# EXPERIMENT SUMMARY: Dog whole blood (dWB) assay, IFNb secretion by ELISA
# REPORTED CONDITIONS: canine Interferon-beta (IFNb) ELISA, 4 h incubation at 37° C.
# Description: For the detection of STING activation in physiological environment dog whole blood (dWB) was stimulated by the cyclic dinucleotide cGAMP or a test compound. Pathway activity was monitored by measuring the IFNb production. Compounds were delivered as 10 mM DMSO solution, diluted and transferred by using an Echo acoustic dispenser to the 384 well assay plate (Greiner #781182), pre-filled with 10 μl 1×HBSS in each well (10×HBSS (+Ca/+Mg), #14065-049, Gibco). […]
Record form. Attribute: EC50. Fill in for each entry.
Quick note: give the figure in nM, leave out the unit.

QUERY: Specify EC50 for "Cc1cccc2c(-c3c(F)ccc4nn(C)cc34)nn(-c3ccc(N4C[C@H]5C[C@@H]4C[C@@H]5C(=O)O)nc3)c12" and stop.
RESULT: 247

QUERY: Specify EC50 for Cc1cccc2c(-c3cccc4nn(C)c(F)c34)nn(-c3ccc(N4CCOC(CC(=O)O)C4)nc3)c12 (single isomer, unassigned) [Example 72-3] and stop.
RESULT: 5230

QUERY: Specify EC50 for "Cc1cccc2c(-c3cccc4nn(C)c(F)c34)nn(-c3ccc(N4CC[C@H](CC(=O)O)C4)nc3)c12" and stop.
RESULT: 185

----------
Record form. Attribute: Delta TM. Fill in for each entry.
# System: dog STING (dSTING)
# EXPERIMENT SUMMARY: Dog differential scanning fluorimetry (DSF) assay, thermal shift of dog STING protein
# Format: binding
# REPORTED CONDITIONS: DSF (dDSF); 100 μM compound, 3 μM dog STING protein; Tm with ligand minus Tm of protein alone
Quick note: give the figure in °C, leave out the unit.

QUERY: Specify Delta TM for "CC(=O)N1C[C@H]2C[C@@H]1CN2c1ccc(-n2nc(-c3c(F)ccc4nn(C)cc34)c3cccc(C)c32)cn1" and stop.
RESULT: 30.5

QUERY: Specify Delta TM for "Cc1cccc2c(-c3c(F)cc(F)c4nn(C)cc34)nn(-c3ccc(N4CCC(C(=O)O)CC4)nc3)c12" and stop.
RESULT: 34.5

QUERY: Specify Delta TM for "CC(=O)N1CCN(c2ccc(-n3nc(-c4c(F)ccc5nn(C)cc45)c4cc(F)cc(C)c43)cn2)CC1" and stop.
RESULT: 27.4

QUERY: Specify Delta TM for Cc1cccc2c(-c3c(F)ccc4nn(C)cc34)nn(-c3ccc(N4CCOC(CC(=O)O)C4)nc3)c12 (stereo not shown) [Example 26-2] and stop.
RESULT: 32.0

----------
Record form. Attribute: pEC50. Fill in for each entry.
# TARGET ENTITY: STING (Canis lupus familiaris, UniProt A0A8I3MH52)
# EXPERIMENT SUMMARY: Dog whole blood (dWB) assay, IFNb secretion by ELISA
# REPORTED CONDITIONS: canine Interferon-beta (IFNb) ELISA, 4 h incubation at 37° C.
pEC50 is a log-scale quantity: -log10 of the concentration expressed in molar.

QUERY: Specify pEC50 for Cc1c(F)ccc2c(-c3cccc4nn(C)c(F)c34)nn(-c3ccc(N4CCC(C(=O)O)CC4)nc3)c12 [Example 60] and stop.
RESULT: 6.71

QUERY: Specify pEC50 for Cc1cc(F)cc2c(-c3c(F)cc(F)c4nn(C)cc34)nn(-c3ccc(N4CCC(C(=O)O)CC4)nc3)c12 [Example 67] and stop.
RESULT: 6.99

QUERY: Specify pEC50 for CC(=O)N1C[C@@H]2C[C@H]1CN2c1ccc(-n2nc(-c3c(F)ccc4nn(C)cc34)c3cccc(C)c32)cn1 [Example 30] and stop.
RESULT: 6.64

QUERY: Specify pEC50 for Cc1cccc2c(-c3ccc(F)c4nn(C)cc34)nn(-c3ccc(N4CCC(C(=O)O)CC4)nc3)c12 [Example 4] and stop.
RESULT: 6.12

QUERY: Specify pEC50 for CC(=O)N1CCN(c2ccc(-n3nc(-c4cccc5nn(C)c(F)c45)c4ccc(F)c(C)c43)cn2)CC1 [Example 66] and stop.
RESULT: 6.75

QUERY: Specify pEC50 for CC(=O)N1CCN(c2ccc(-n3nc(-c4c(F)cc(F)c5nn(C)cc45)c4cccc(C)c43)cn2)CC1 [Example 49] and stop.
RESULT: 6.38

QUERY: Specify pEC50 for Cc1cccc2c(-c3ccc(F)c4nn(C)c(F)c34)nn(-c3ccc(N4CCC(C(=O)O)CC4)nc3)c12 [Example 53] and stop.
RESULT: 6.18

----------
# Tested on: dog STING (dSTING)
# EXPERIMENT SUMMARY: Dog differential scanning fluorimetry (DSF) assay, thermal shift of dog STING protein
# Assay type: binding
# REPORTED CONDITIONS: DSF (dDSF); 100 μM compound, 3 μM dog STING protein; Tm with ligand minus Tm of protein alone
// returns label 0 unless Delta TM is strictly below 30 °C, in which case label 1

QUERY: Lab note: confirm whether the reported Delta TM for this compound is below 30 °C, equality not counting. compound: Cc1cccc2c(-c3cccc4nn(C)c(F)c34)nn(-c3ccc(N4C[C@@H]5C[C@H]4C[C@H]5C(=O)O)nc3)c12 (racemic) [Example 19]
RESULT: label 0

QUERY: Lab note: confirm whether the reported Delta TM for this compound is below 30 °C, equality not counting. compound: "Cc1cccc2c(-c3cccc4nn(C)c(F)c34)nn(-c3ccc(N4C[C@H]5C[C@@H]4C[C@@H]5C(=O)O)nc3)c12"
RESULT: label 0

QUERY: Lab note: confirm whether the reported Delta TM for this compound is below 30 °C, equality not counting. compound: Cc1cccc2c(-c3cc(F)cc4nn(C)cc34)nn(-c3ccc(N4C[C@@H]5C[C@H]4C[C@H]5C(=O)O)nc3)c12 (single isomer, unassigned)
RESULT: label 1

QUERY: Lab note: confirm whether the reported Delta TM for this compound is below 30 °C, equality not counting. compound: "Cc1cccc2c(-c3c(F)cc(F)c4nn(C)c(F)c34)nn(-c3ccc(N4C[C@@H]5[C@H](C4)[C@H]5C(=O)O)nc3)c12"
RESULT: label 0

QUERY: Lab note: confirm whether the reported Delta TM for this compound is below 30 °C, equality not counting. compound: "CC(=O)N1CCN(c2ccc(-n3nc(-c4ccc(F)c5nn(C)c(F)c45)c4cccc(C)c43)cn2)CC1"
RESULT: label 1

QUERY: Lab note: confirm whether the reported Delta TM for this compound is below 30 °C, equality not counting. compound: "Cc1cccc2c(-c3c(F)ccc4nn(C)cc34)nn(-c3ccc(N4CC[C@H](CC(=O)O)C4)nc3)c12"
RESULT: label 0

----------
# TARGET ENTITY: STING (Canis lupus familiaris)
# EXPERIMENT SUMMARY: Dog whole blood (dWB) assay, IFNb secretion by ELISA
# REPORTED CONDITIONS: canine Interferon-beta (IFNb) ELISA, 4 h incubation at 37° C.
// returns criterion not met unless EC50 is strictly below 200 nM, in which case criterion met

QUERY: Lab note: confirm whether the reported EC50 for this molecule is below 200 nM, equality not counting. molecule: Cc1cccc2c(-c3c(F)cc(F)c4nn(C)cc34)nn(-c3ccc(N4CC5CCC4CC5C(=O)O)nc3)c12 (single isomer, unassigned) [Example 48-3]
RESULT: criterion met

QUERY: Lab note: confirm whether the reported EC50 for this molecule is below 200 nM, equality not counting. molecule: "Cc1cccc2c(-c3cccc4nn(C)c(F)c34)nn(-c3ccc(N4C[C@H]5C[C@@H]4C[C@@H]5C(=O)O)nc3)c12"
RESULT: criterion met

QUERY: Lab note: confirm whether the reported EC50 for this molecule is below 200 nM, equality not counting. molecule: "Cc1cccc2c(-c3c(F)cc(F)c4nn(C)c(F)c34)nn(-c3ccc(N4C[C@@H]5[C@H](C4)[C@H]5C(=O)O)nc3)c12"
RESULT: criterion not met

QUERY: Lab note: confirm whether the reported EC50 for this molecule is below 200 nM, equality not counting. molecule: "Cc1cccc2c(-c3c(F)cc(F)c4nn(C)cc34)nn(-c3ccc(N4CC[C@@H](CC(=O)O)C4)nc3)c12"
RESULT: criterion not met

QUERY: Lab note: confirm whether the reported EC50 for this molecule is below 200 nM, equality not counting. molecule: "Cc1cc(F)cc2c(-c3cccc4nn(C)c(F)c34)nn(-c3ccc(N4CCC(C(=O)O)CC4)nc3)c12"
RESULT: criterion not met

QUERY: Lab note: confirm whether the reported EC50 for this molecule is below 200 nM, equality not counting. molecule: "Cc1cccc2c(-c3c(Cl)ccc4nn(C)cc34)nn(-c3ccc(N4C[C@@H]5[C@H](C4)[C@H]5C(=O)O)nc3)c12"
RESULT: criterion not met
